Give measured inhibition for each item. Keep answers brief.
System: Tyrosine-protein kinase ABL1 (Homo sapiens), P00519 [Q252H]
Conditions: at 0.1 µM
Quick note: give the figure in %, leave out the unit.

Requested field: inhibition. Item: `Nc1nc(-c2ccc3c(c2)C(=Cc2cc(Br)c(O)c(Br)c2)C(=O)N3)cs1`
2.23

Requested field: inhibition. Item: `Cc1cc(O)cc(C)c1/C=C/c1cncc(-c2nn[nH]n2)c1`
23.1

Requested field: inhibition. Item: `COc1ccc(-c2nn3ncccc3c2-c2ccnc(Nc3ccc(Cl)c(C(F)(F)F)c3)n2)cc1`
4.06

Requested field: inhibition. Item: `O=C(Nc1n[nH]c2nc(-c3ccco3)c(Br)cc12)C1CC1`
8.1

Requested field: inhibition. Item: `COc1cc2c(cc1Nc1nc(N3CCc4ccccc43)c3cc[nH]c3n1)N(C(=O)CN(C)C)CC2`
1.56

Requested field: inhibition. Item: `COC(=O)Nc1nc2cc(Oc3ccc(NC(=O)Nc4cccc(C(=O)O)c4)cc3)ccc2[nH]1`
1.92

Requested field: inhibition. Item: `COc1ccccc1Nc1ncc(-c2ccccc2)o1`
5.47

Requested field: inhibition. Item: `[O-][S+]1CCN(Cc2ccc(-c3ccc4ncnc(Nc5ccc(OCc6ccccc6)c(F)c5)c4c3)o2)CC1`
1.58

Requested field: inhibition. Item: `Cc1cccc(-c2n[nH]cc2-c2ccc3ncccc3n2)n1`
3.21

Requested field: inhibition. Item: `Cc1ccc(C(=O)NC2CCCCC2)cc1-c1ccc(C(=O)NCC2CC2)cc1`
3.13

Requested field: inhibition. Item: `CCCN1CCC=C(c2ccc(Nc3nc(Nc4ccccc4C(N)=O)c4cc[nH]c4n3)c(C)c2)C1`
3.91

Requested field: inhibition. Item: `CN(C)c1cc2c(Nc3ccc4nc(Cc5ccccc5)[nH]c4c3)ncnc2cn1`
6.01

Requested field: inhibition. Item: `COc1cc2ncn(-c3cc(O[C@@H](C)c4ccccc4Cl)c(C(N)=O)s3)c2cc1OC`
6.57

Requested field: inhibition. Item: `NS(=O)(=O)c1cccc(-c2ccc3c(NC(=O)C4CC4)n[nH]c3c2)c1`
2.5

Requested field: inhibition. Item: `Fc1cccc(COc2ccc(Nc3ncnc4sc(-c5cccs5)cc34)cc2Cl)c1`
0.76

Requested field: inhibition. Item: `Nc1ncnc2occ(-c3ccc(NC(=O)Nc4cc(C(F)(F)F)cc(C(F)(F)F)c4)cc3)c12`
45

Requested field: inhibition. Item: `CS(=O)(=O)CCNCc1nc(-c2ccc3ncnc(Nc4ccc(F)c(Cl)c4)c3c2)cs1`
3.6

Requested field: inhibition. Item: CC1=C(C(=O)Nc2ccc3[nH]ncc3c2)C(c2ccc(F)cc2)NC(=O)N1 (stereo not given)
2.07

Requested field: inhibition. Item: `COc1cc(C=NNc2ncnc3c2cnn3-c2ccccc2)ccc1O`
50.5

Requested field: inhibition. Item: `COc1ccc(-c2coc3ncnc(N)c23)cc1`
5.31

----------
Target: Tyrosine-protein kinase Lyn (Homo sapiens);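 note: mean percent inhibition of the LYN A splice variant of the kinase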
Conditions: at 1 µM
Description: GSK_PKIS: LYN A (splice variant) mean inhibition at 1 uM [Nanosyn]
Give measured inhibition for each item. Keep answers brief.

Requested field: inhibition. Item: `CS(=O)(=O)CCN(CC#N)Cc1ccc(-c2ccc3ncnc(Nc4ccc(OCc5cccc(F)c5)c(Cl)c4)c3c2)o1`
3.17%

Requested field: inhibition. Item: `COc1ccc(-c2coc3ncnc(N)c23)cc1`
5.54%

Requested field: inhibition. Item: `CCN1CCC(CC(=O)Nc2n[nH]c3nc(-c4cccs4)c(Br)cc23)CC1`
1.67%

Requested field: inhibition. Item: `COc1cc2ncn(-c3cc(OCc4ccccc4Cl)c(C(N)=O)s3)c2cc1OC`
25.6%

Requested field: inhibition. Item: `CS(=O)(=O)Nc1ccc(N/C=C2\C(=O)Nc3ccccc32)cc1`
12.1%

Requested field: inhibition. Item: `Cc1cccc(-c2n[nH]cc2-c2ccc3ncccc3n2)n1`
7.91%

Requested field: inhibition. Item: `COC(=O)Nc1nc2cc(Oc3cccc(NC(=O)Nc4cc(C(F)(F)F)ccc4F)c3)ccc2[nH]1`
45.9%

Requested field: inhibition. Item: `COc1ccc(-c2nn3ncccc3c2-c2ccnc(Nc3ccc(Cl)c(C(F)(F)F)c3)n2)cc1`
7.79%

Requested field: inhibition. Item: `CN1CCC(C(=O)Nc2n[nH]c3nnc(-c4ccccc4)cc23)CC1`
4.72%

Requested field: inhibition. Item: `Nc1nc(-c2ccccn2)c(-c2ccc3ncccc3n2)s1`
4.44%

----------
Give measured inhibition for each item. Keep answers brief.
Target: Ribosomal protein S6 kinase alpha-3 (Homo sapiens) (UniProt P51812)
Sequence (P51812 whole entry): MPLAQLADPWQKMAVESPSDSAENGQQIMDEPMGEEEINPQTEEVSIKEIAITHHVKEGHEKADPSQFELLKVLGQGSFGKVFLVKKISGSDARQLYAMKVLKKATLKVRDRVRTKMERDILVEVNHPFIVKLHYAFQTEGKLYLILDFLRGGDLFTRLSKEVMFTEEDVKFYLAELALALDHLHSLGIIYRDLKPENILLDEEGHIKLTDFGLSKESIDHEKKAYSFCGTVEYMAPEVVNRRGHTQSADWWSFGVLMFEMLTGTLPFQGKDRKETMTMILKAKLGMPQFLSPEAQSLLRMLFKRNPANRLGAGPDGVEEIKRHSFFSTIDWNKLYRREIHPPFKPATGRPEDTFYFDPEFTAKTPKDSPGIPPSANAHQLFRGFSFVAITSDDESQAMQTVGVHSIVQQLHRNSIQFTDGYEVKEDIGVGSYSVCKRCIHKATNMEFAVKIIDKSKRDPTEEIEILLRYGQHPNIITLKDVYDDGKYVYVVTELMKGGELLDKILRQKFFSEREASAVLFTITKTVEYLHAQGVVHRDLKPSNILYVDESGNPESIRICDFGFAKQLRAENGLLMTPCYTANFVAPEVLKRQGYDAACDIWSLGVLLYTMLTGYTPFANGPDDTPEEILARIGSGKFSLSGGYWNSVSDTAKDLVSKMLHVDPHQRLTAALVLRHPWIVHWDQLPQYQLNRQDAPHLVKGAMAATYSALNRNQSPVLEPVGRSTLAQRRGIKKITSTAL
Settings: at 1 µM
Description: GSK_PKIS: RSK2 mean inhibition at 1 uM [Nanosyn]
Quick note: give the figure in %, leave out the unit.

Requested field: inhibition. Item: `COc1ccccc1Nc1ncc(-c2ccccc2)o1`
0.19

Requested field: inhibition. Item: `Cc1nn(C)c2cc(N(C)c3ccnc(Nc4cccc(S(N)(=O)=O)c4)n3)ccc12`
6.38

Requested field: inhibition. Item: `COc1cc2ncn(-c3cc(O[C@H](C)c4ccccc4Cl)c(C(N)=O)s3)c2cc1OC`
16.4

Requested field: inhibition. Item: `O=C1Nc2ccc(C(=O)c3ccco3)cc2C1=Cc1cc(Cl)c(O)c(Cl)c1`
6.32

Requested field: inhibition. Item: `O=C1NC(=O)C(c2ccc(Cl)cc2)=C1Nc1ccc(Cl)c(C(=O)O)c1`
-1.86

Requested field: inhibition. Item: `COC(=O)Nc1nc2cc(Oc3ccc(NC(=O)Nc4cccc(C(=O)O)c4)cc3)ccc2[nH]1`
1.31

Requested field: inhibition. Item: `CC(=O)Nc1cccc(C#Cc2cncnc2Nc2ccc(OCc3cccc(F)c3)c(Cl)c2)n1`
4.03

Requested field: inhibition. Item: `COC(=O)Nc1nc2cc(Oc3cccc(NC(=O)Nc4cc(C(F)(F)F)ccc4F)c3)ccc2[nH]1`
1.19

Requested field: inhibition. Item: `COc1ccc(-c2ccncc2)cc1C(N)=O`
4.1

Requested field: inhibition. Item: `CCn1c(-c2nonc2N)nc2c(C#CC(C)(C)O)nc(OC[C@@H](N)c3ccccc3)cc21`
26.8

Requested field: inhibition. Item: `CS(=O)(=O)CCNCc1nc(-c2ccc3ncnc(Nc4ccc(F)c(Cl)c4)c3c2)cs1`
2.43

Requested field: inhibition. Item: CC1=C(C(=O)Nc2ccc3[nH]ncc3c2)C(c2ccc(F)cc2)NC(=O)N1 (configuration not stated)
11.2

Requested field: inhibition. Item: `CN(C)c1cc2c(Nc3ccc4nc(Cc5ccccc5)[nH]c4c3)ncnc2cn1`
2.55

Requested field: inhibition. Item: `COc1ccc(COc2ccc(Cc3cnc(N)nc3N)cc2OC)cc1`
-0.8

Requested field: inhibition. Item: `O=C1NC(=O)C(c2cccc(Cl)c2)=C1Nc1ccc(O)c(Cl)c1`
14.1

Requested field: inhibition. Item: CC1=C(C(=O)Nc2ccc3[nH]ncc3c2)C(c2ccc(Cl)c(Cl)c2)CC(=O)N1 (configuration not stated)
18.9

Requested field: inhibition. Item: `Cc1ccc(NC(=O)c2ccnc(N3CCCC3)c2)cc1-c1ccc(C(=O)NCC2CC2)cc1`
6.09

Requested field: inhibition. Item: `CC(C)=Cc1cccc2c1/C(=N/Nc1ccc(S(N)(=O)=O)cc1)C(=O)N2`
8.42

Requested field: inhibition. Item: `CCn1c(-c2nonc2N)nc2cnc(Oc3cccc(NC(=O)c4ccc(OCCN5CCOCC5)cc4)c3)cc21`
54.6

Requested field: inhibition. Item: `NCc1ccc(-c2nc(-c3ccc(Cl)c(O)c3)c(-c3ccncc3)[nH]2)cc1`
-1.09

Requested field: inhibition. Item: `CN1CCC(C(=O)Nc2n[nH]c3nnc(-c4ccccc4)cc23)CC1`
3.98

Requested field: inhibition. Item: `Cc1cccc(-c2n[nH]cc2-c2ccc3ncccc3n2)n1`
1.24

Requested field: inhibition. Item: `COc1cc2c(cc1Nc1nc(N3CCc4ccccc43)c3cc[nH]c3n1)N(C(=O)CN(C)C)CC2`
-1.32

Requested field: inhibition. Item: `COc1ccc(-c2nn3ncccc3c2-c2ccnc(Nc3ccc(Cl)c(C(F)(F)F)c3)n2)cc1`
3.67

Requested field: inhibition. Item: `COc1cc2ncn(-c3cc(OCc4ccccc4C(F)(F)F)c(C(N)=O)s3)c2cc1OC`
11.1

Requested field: inhibition. Item: `NS(=O)(=O)c1ccc(N/N=C2\C(=O)Nc3ccc(C(=O)NCCc4c[nH]cn4)cc32)cc1`
11.9

Requested field: inhibition. Item: `Cc1ccc(C(=O)NC2CCCCC2)cc1-c1ccc(C(=O)NCC2CC2)cc1`
0.57

Requested field: inhibition. Item: `[O-][S+]1CCN(Cc2ccc(-c3ccc4ncnc(Nc5ccc(OCc6ccccc6)c(F)c5)c4c3)o2)CC1`
-0.78

Requested field: inhibition. Item: `CCn1c(-c2nonc2N)nc2c(C#CC(C)(C)O)nc(CN3CCCC3)cc21`
2.37

Requested field: inhibition. Item: `CCn1c(-c2nonc2N)nc2cncc(C(=O)N3CC[C@H](N)C3)c21`
69.9

Requested field: inhibition. Item: `N#Cc1c(NC(=O)c2cccc3ccccc23)sc2c1CCCC2`
0.5

Requested field: inhibition. Item: `NC(=O)c1cccc(Nc2nccc(Nc3cccc4[nH]ncc34)n2)c1`
8.36

Requested field: inhibition. Item: `Fc1cccc(COc2ccc(Nc3ncnc4cc(-c5ccc[nH]5)sc34)cc2Cl)c1`
2.56

Requested field: inhibition. Item: `COc1cc(C=NNc2ncnc3c2cnn3-c2ccccc2)ccc1O`
6.18

Requested field: inhibition. Item: `Cc1nnc(-c2ccc(C)c(-c3ccc(C(=O)Nc4cccc(C#N)c4)cc3)c2)o1`
2.97

Requested field: inhibition. Item: `CS(=O)(=O)CCN(CC#N)Cc1ccc(-c2ccc3ncnc(Nc4ccc(OCc5cccc(F)c5)c(Cl)c4)c3c2)o1`
-1.73

Requested field: inhibition. Item: CC1=C(C(=O)Nc2ccc3[nH]ncc3c2)C(c2ccc3ccccc3c2)CC(=O)N1 (configuration not stated)
21.3
